Each item that follows carries a reported IL-8 [abs. corr.].
targetSystem: T1, CD27 expressed on the cell surface (HT1080_CD27 cells) (human, UniProt P26842 20-260); also: test concentration or dose not given here
T1 sequence (looked up): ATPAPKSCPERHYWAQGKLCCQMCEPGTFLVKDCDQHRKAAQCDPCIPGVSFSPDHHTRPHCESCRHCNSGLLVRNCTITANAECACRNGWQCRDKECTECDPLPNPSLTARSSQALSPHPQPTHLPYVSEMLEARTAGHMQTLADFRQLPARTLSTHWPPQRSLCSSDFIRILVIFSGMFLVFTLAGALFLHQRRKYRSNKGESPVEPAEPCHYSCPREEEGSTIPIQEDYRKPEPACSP
measurementProtocol: cell-based or functional assay
Hi! Could you send only the number? It should be in abs. corr., unit omitted.

Item P018.S.07.A.F04 (antibody, V domains shown, V regions on human Ig constant parts; also called AB27_128) VH: QSLEESGGRLVTPGTPLTLTCTVSGFSLSSHAMSWVRQAPGKGLEYIGIIDTDASASYASWAKGRFTISRTSTTVDLKITSPTTEDTATYFCARDGGYTDYSYYAMDLWGPGTLVTVSS VL: DIVMTQTPASVEAAVGGTVTIKCQASETIYVNLAWYQQKPGQPPKLLIYRASTLASGVSSRFKGSGSGTEFTLTISDVKSVDAATYYCHQAYRRSDVGNIFGGGTEVVVK : provide IL-8 [abs. corr.]
0.424

Item P018.S.03.A.F03 (antibody, V domains shown, V regions on human Ig constant parts; also called AB27_54) VH: QSLEESGGRLVTPGGSLTLTCTVSGIDLSSYAMGWVRQAPGKGLEYLGIIYTSNRTHYATWAKGRFTISKTSSTTVDLKATSLTTEDTATYFCGRYGRGSGGYYYGMDLWGPGTLVTVSS VL: DIVMTQTPASVEAAVGGTVTIKCQASQSGDDYCSWYQQKPGQRPKLLIYAASTLASGVPSRFRGSRSGTEYTLTISDLESADAATYYCQNYCAGSGVCLGVAFGGGTEVVVK : provide IL-8 [abs. corr.]
0.106

Item P018.S.09.A.A03 (antibody, V domains shown, V regions on human Ig constant parts; also called AB27_144) VH: QEQLVESGGGLVQPEGSLTLTCTASGFSFSSSYYMCWVRQAPGKGPEWIACIYTYSGDTDYANWAKGRFTISKTSSTTVTLQMTSLTAADTATYFCAKAGYGGYGYPIFNLWGPGTLVTVSS VL: AFELTQTPSSVEAAVGGTVTIKCQASQSIGSSLAWYQQKPGQRPKLLMYYVSTLASGVSSRFKGSGSGTEFTLTISDLESADAATYYCQSYYGSGTTVFWAFGGGTEVVVK : provide IL-8 [abs. corr.]
0.263
